For each of the compounds below, state its IC50.
# Assay Info: Inhibition of Class 1 PI3K/mTOR in human A2058 cells assessed as reduction in Akt phosphorylation at Ser473 residue incubated for 1 hr by InCell Western assay
# Type: cell-based
# Protocol Conditions: A2058, 1 h
Answers are plain numbers, in nM.

[
  {
    "Compound Smiles": "C[C@H]1COCCN1c1cc(-c2cnc(N)nc2C(F)F)nc(N2CCOCC2)n1",
    "IC50 (nM)": 99.6
  },
  {
    "Compound Smiles": "C[C@H]1COCCN1c1nc(-c2cnc(N)cc2C(F)F)cc(N2CCOCC2)n1",
    "IC50 (nM)": 146
  },
  {
    "Compound Smiles": "C[C@H]1COCCN1c1nc(-c2cnc(N)nc2C(F)(F)F)nc(N2CCOCC2)n1",
    "IC50 (nM)": 91
  },
  {
    "Compound Smiles": "C[C@@H]1COC[C@H](C)N1c1nc(-c2cnc(N)cc2C(F)(F)F)nc(N2[C@H](C)COC[C@@H]2C)n1",
    "IC50 (nM)": 567
  },
  {
    "Compound Smiles": "Nc1cc(C(F)(F)F)c(-c2nc(N3CCOCC3)nc(N3C4CCC3COC4)n2)cn1",
    "IC50 (nM)": 420
  }
]

Hey, can you go through the list below and give me IC50 for every item?
1. Nc1cc(C(F)(F)F)c(-c2nc(N3CC4CCC(C3)O4)nc(N3CC4CCC(C3)O4)n2)cn1
2. C[C@H]1COCCN1c1nc(-c2cnc(N)cc2C(F)(F)F)nc(N2CCOCC2)n1
3. Nc1cc(C(F)(F)F)c(-c2nc(N3C4CCC3COC4)nc(N3C4CCC3COC4)n2)cn1
4. Nc1cc(C(F)(F)F)c(-c2nc(N3CCOCC3)nc(N3CC4CCC(C3)O4)n2)cn1
5. C[C@H]1COC[C@H](C)N1c1nc(-c2cnc(N)cc2C(F)(F)F)nc(N2[C@@H](C)COC[C@@H]2C)n1
6. C[C@H]1COCCN1c1nc(-c2cnc(N)cc2C(F)F)nc(N2CCOCC2)n1
7. C[C@H]1COC[C@H](C)N1c1nc(-c2cnc(N)cc2C(F)(F)F)nc(N2CCOCC2)n1

Ans.
[947, 196, 755, 274, 610, 62.2, 100]
